Target: human PHD2 (Homo sapiens (Human))
Test: Test 2: human PHD2 inhibitory activity, fluorescence polarization assay of HIF-1α peptide proline hydroxylation
Assay type: biochemical
Settings: test compound's concentration 1 μM; Test 2, fluorescence polarization assay; read-out: Percent inhibition (% at 1 μM)
MEASUREMENT_LABEL: inhibition at 1 µM (%)

- COMPOUND: "O=C(O)CNC(=O)C1=C(O)CCN(Cc2ccc(-c3ccsc3)cc2)C1=O [Ex. 2-18]"
  MEASUREMENT_LABEL: "inhibition at 1 µM"
  UNIT_ABBREV: "%"
  RECORDED_MEASUREMENT: 91
- COMPOUND: "O=C(O)CNC(=O)C1=C(O)CCN(Cc2ccc(-c3ccc(OC(F)(F)F)cc3)cn2)C1=O [Ex. 2-39]"
  MEASUREMENT_LABEL: "inhibition at 1 µM"
  UNIT_ABBREV: "%"
  RECORDED_MEASUREMENT: 93
- COMPOUND: "Cc1ccc(Oc2ccc(CN3CCC(O)=C(C(=O)NCC(=O)O)C3=O)cc2)cc1C [Ex. 1-386]"
  MEASUREMENT_LABEL: "inhibition at 1 µM"
  UNIT_ABBREV: "%"
  RECORDED_MEASUREMENT: 92
- COMPOUND: "CC1(C)CC(O)=C(C(=O)NCC(=O)O)C(=O)N1Cc1ccc(OCC(F)(F)F)cc1 [Ex. 1-221]"
  MEASUREMENT_LABEL: "inhibition at 1 µM"
  UNIT_ABBREV: "%"
  RECORDED_MEASUREMENT: 73

* * *

Biological target: human PHD2 (Homo sapiens (Human), UniProt Q9GZT9)
Sequence (Q9GZT9 whole entry): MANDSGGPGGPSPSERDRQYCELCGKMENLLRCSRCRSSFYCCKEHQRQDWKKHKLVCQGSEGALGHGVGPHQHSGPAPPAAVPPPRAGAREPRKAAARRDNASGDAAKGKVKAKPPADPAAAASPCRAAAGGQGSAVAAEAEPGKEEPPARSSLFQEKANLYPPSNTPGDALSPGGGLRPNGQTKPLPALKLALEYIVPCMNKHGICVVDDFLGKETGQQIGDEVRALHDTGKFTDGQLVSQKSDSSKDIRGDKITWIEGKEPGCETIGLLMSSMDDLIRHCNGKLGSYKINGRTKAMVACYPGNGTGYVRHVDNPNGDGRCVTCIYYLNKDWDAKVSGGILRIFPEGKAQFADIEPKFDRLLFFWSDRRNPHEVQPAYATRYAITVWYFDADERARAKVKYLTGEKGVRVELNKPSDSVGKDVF
Assay: Test 2: human PHD2 inhibitory activity, fluorescence polarization assay of HIF-1α peptide proline hydroxylation
Format: biochemical
Conditions: test compound's concentration 1 μM; Test 2, fluorescence polarization assay; read-out: Percent inhibition (% at 1 μM)
MEASUREMENT_LABEL: inhibition at 1 µM (%)

- SMILES_DATA: "O=C(O)CNC(=O)C1=C(O)C2(CCC2)CN(Cc2ccc(OCC3CC3)cc2)C1=O"
  UNIT_ABBREV: "%"
  inhibition at 1 µM: 81
- SMILES_DATA: "O=C(O)CNC(=O)C1=C(O)CC2(CC2)N(Cc2ccc(C(F)(F)F)cc2)C1=O"
  UNIT_ABBREV: "%"
  inhibition at 1 µM: 90
- SMILES_DATA: "CC1(C)CC(O)=C(C(=O)NCC(=O)O)C(=O)N1Cc1ccc(OCC2CC2)c(F)c1"
  UNIT_ABBREV: "%"
  inhibition at 1 µM: 79
- SMILES_DATA: "O=C(O)CNC(=O)C1=C(O)CCN(Cc2ccc(OCc3cccnc3)cc2)C1=O"
  UNIT_ABBREV: "%"
  inhibition at 1 µM: 89

* * *

Biological target: human PHD2 (Homo sapiens (Human), UniProt Q9GZT9)
Assay: Test 2: human PHD2 inhibitory activity, fluorescence polarization assay of HIF-1α peptide proline hydroxylation
Type: biochemical
Settings: test compound's concentration 1 μM; Test 2, fluorescence polarization assay; read-out: Percent inhibition (% at 1 μM)
Protocol: (1) Expression and Preparation of Human PHD2 A registered sequence of human PHD2 (NM_022051) was introduced into pcDNA3.1/Hygro(+) vector (Invitrogen), and the sequence was verified. […] The activity of human PHD2 enzyme was measured with a substrate which is a 19-residue partial peptide based on the sequence of HIF-1α; specifically, the hydroxylation of a proline residue in the peptide was measured by FP (Fluorescence Polarization). […]
MEASUREMENT_LABEL: inhibition at 1 µM (%)

Use these answered entries as a reference point.
- COMPOUND: "O=C(O)CNC(=O)C1=C(O)C2(CC2)CN(Cc2ccc(C(F)(F)F)cc2)C1=O"
  TGT: "human PHD2 (Homo sapiens (Human), UniProt Q9GZT9)"
  RECORDED_MEASUREMENT: 88
- COMPOUND: "Cc1ccc(O[C@H]2C[C@H](CN3CCC(O)=C(C(=O)NCC(=O)O)C3=O)C2)cc1"
  TGT: "human PHD2 (Homo sapiens (Human), UniProt Q9GZT9)"
  RECORDED_MEASUREMENT: 89
- COMPOUND: "Cc1ccc(CN2C(=O)C(C(=O)NCC(=O)O)=C(O)CC2(C)C)cc1F"
  TGT: "human PHD2 (Homo sapiens (Human), UniProt Q9GZT9)"
  RECORDED_MEASUREMENT: 60

(I) O=C(O)CNC(=O)C1=C(O)CCN(C(CO)c2ccc(-c3ccc(F)cc3)cc2)C1=O (stereo not drawn)
(II) O=C(O)CNC(=O)C1=C(O)C2(CCCCCC2)CN(Cc2ccc(-c3ccccc3)cc2)C1=O
Of I and II , which one carries the higher reported inhibition at 1 µM? Identify your pick by its label. I
(I: 96%, II: 36%)

* * *

Target: human PHD2 (Homo sapiens (Human))
Assay: Test 2: human PHD2 inhibitory activity, fluorescence polarization assay of HIF-1α peptide proline hydroxylation
Assay type: biochemical
Details: test compound's concentration 1 μM; Test 2, fluorescence polarization assay; read-out: Percent inhibition (% at 1 μM)
MEASUREMENT_LABEL: inhibition at 1 µM (%)

- COMPOUND: "O=C(O)CNC(=O)C1=C(O)CCN(C[C@H]2CC[C@H](OCc3ccc(Cl)cn3)CC2)C1=O"
  TGT: "human PHD2 (Homo sapiens (Human))"
  UNIT_ABBREV: "%"
  inhibition at 1 µM: 87
- COMPOUND: "O=C(O)CNC(=O)C1=C(O)C2(CCOCC2)CN(Cc2ccc(C(F)(F)F)cc2)C1=O"
  TGT: "human PHD2 (Homo sapiens (Human))"
  UNIT_ABBREV: "%"
  inhibition at 1 µM: 81
- COMPOUND: "O=C(O)CNC(=O)C1=C(O)CCN(Cc2cnc(C3CCCCC3)nc2)C1=O"
  TGT: "human PHD2 (Homo sapiens (Human))"
  UNIT_ABBREV: "%"
  inhibition at 1 µM: 79
- COMPOUND: "O=C(O)CNC(=O)C1=C(O)C2(CCC2)CN(Cc2ccc(C(F)(F)F)cc2)C1=O"
  TGT: "human PHD2 (Homo sapiens (Human))"
  UNIT_ABBREV: "%"
  inhibition at 1 µM: 73
- COMPOUND: "CN1CC2(CC1=O)CC(O)=C(C(=O)NCC(=O)O)C(=O)N2Cc1ccc(-c2ccccc2)cc1 (stereo not shown)"
  TGT: "human PHD2 (Homo sapiens (Human))"
  UNIT_ABBREV: "%"
  inhibition at 1 µM: 81
- COMPOUND: "COc1ccc(-c2ccc(CN3CCC(O)=C(C(=O)NCC(=O)O)C3=O)cc2)cc1"
  TGT: "human PHD2 (Homo sapiens (Human))"
  UNIT_ABBREV: "%"
  inhibition at 1 µM: 91
- COMPOUND: "O=C(O)CNC(=O)C1=C(O)CCN(CCc2ccccc2)C1=O"
  TGT: "human PHD2 (Homo sapiens (Human))"
  UNIT_ABBREV: "%"
  inhibition at 1 µM: 75
- COMPOUND: "Cc1ccc(Oc2ccc(CN3CCC(O)=C(C(=O)NCC(=O)O)C3=O)cc2)cn1"
  TGT: "human PHD2 (Homo sapiens (Human))"
  UNIT_ABBREV: "%"
  inhibition at 1 µM: 92
- COMPOUND: "O=C(O)CNC(=O)C1=C(O)CC2(CCC2)N(Cc2ccc(Cl)cc2)C1=O"
  TGT: "human PHD2 (Homo sapiens (Human))"
  UNIT_ABBREV: "%"
  inhibition at 1 µM: 86
- COMPOUND: "CC1(C)CC(O)=C(C(=O)NCC(=O)O)C(=O)N1Cc1ccc(OCCCC(F)(F)F)cc1"
  TGT: "human PHD2 (Homo sapiens (Human))"
  UNIT_ABBREV: "%"
  inhibition at 1 µM: 77
- COMPOUND: "CC1(C)CC(O)=C(C(=O)NCC(=O)O)C(=O)N1Cc1ccc(-c2ccc(C(F)(F)F)cc2)cc1"
  TGT: "human PHD2 (Homo sapiens (Human))"
  UNIT_ABBREV: "%"
  inhibition at 1 µM: 87
- COMPOUND: "O=C(O)CNC(=O)C1=C(O)CCN(Cc2ccc(-c3ccc(Cl)cc3)nc2)C1=O"
  TGT: "human PHD2 (Homo sapiens (Human))"
  UNIT_ABBREV: "%"
  inhibition at 1 µM: 93
- COMPOUND: "CC(C)(C)c1ccc(-c2ccc(CN3C(=O)C(C(=O)NCC(=O)O)=C(O)C34CCCCC4)cc2)cc1"
  TGT: "human PHD2 (Homo sapiens (Human))"
  UNIT_ABBREV: "%"
  inhibition at 1 µM: 69

* * *

Target: human PHD2 (Homo sapiens (Human))
Assay: Test 1: human PHD2 inhibitory activity, [14C]-2-oxoglutarate to [14C]-succinic acid radiometric assay with HIF-1α peptide
Type: biochemical
Conditions: test compound's concentration 1 μM; Test 1, [14C]-2-oxoglutarate radiometric assay; read-out: Percent inhibition (% at 1 μM)
MEASUREMENT_LABEL: inhibition at 1 µM (%)

- MOLECULE: "CC1(C)CC(O)=C(C(=O)NCC(=O)O)C(=O)N1Cc1ccc(OC(CF)CF)c(Cl)c1"
  MEASUREMENT_LABEL: "inhibition at 1 µM"
  UNIT_ABBREV: "%"
  RECORDED_MEASUREMENT: 44
- MOLECULE: "CC1CN(Cc2ccc(Cl)c(Cl)c2)C(=O)C(C(=O)NCC(=O)O)=C1O (centres unmarked)"
  MEASUREMENT_LABEL: "inhibition at 1 µM"
  UNIT_ABBREV: "%"
  RECORDED_MEASUREMENT: 84
- MOLECULE: "O=C(O)CNC(=O)C1=C(O)CC2(CCC2)N(Cc2ccc(Cl)cc2)C1=O"
  MEASUREMENT_LABEL: "inhibition at 1 µM"
  UNIT_ABBREV: "%"
  RECORDED_MEASUREMENT: 82
- MOLECULE: "O=C(O)CNC(=O)C1=C(O)CCN(Cc2ccc(Oc3cccc(F)c3)nc2)C1=O"
  MEASUREMENT_LABEL: "inhibition at 1 µM"
  UNIT_ABBREV: "%"
  RECORDED_MEASUREMENT: 101
- MOLECULE: "O=C(O)CNC(=O)C1=C(O)CCN(Cc2ccc(-c3ccsc3)cc2)C1=O"
  MEASUREMENT_LABEL: "inhibition at 1 µM"
  UNIT_ABBREV: "%"
  RECORDED_MEASUREMENT: 98
- MOLECULE: "COc1cc(CN2C(=O)C(C(=O)NCC(=O)O)=C(O)CC2(C)C)ccc1C(F)(F)F"
  MEASUREMENT_LABEL: "inhibition at 1 µM"
  UNIT_ABBREV: "%"
  RECORDED_MEASUREMENT: 38

(1) O=C(O)CNC(=O)C1=C(O)CCN(Cc2ccc(-c3ccccc3)cc2F)C1=O
(2) O=C(O)CNC(=O)C1=C(O)[C@@H]2CCCCC2N(Cc2ccc(-c3ccccc3)cc2)C1=O (some centres unmarked)
Select the item whose inhibition at 1 µM value is smaller, choosing between 1 and 2 . Give the label under which the chosen entry appears. 2
